Measured Target: S. aureus Topoisomerase IV (Staphylococcus aureus, UniProt P0C1S7+P0C1U9)
Sequence (P0C1U9 whole entry): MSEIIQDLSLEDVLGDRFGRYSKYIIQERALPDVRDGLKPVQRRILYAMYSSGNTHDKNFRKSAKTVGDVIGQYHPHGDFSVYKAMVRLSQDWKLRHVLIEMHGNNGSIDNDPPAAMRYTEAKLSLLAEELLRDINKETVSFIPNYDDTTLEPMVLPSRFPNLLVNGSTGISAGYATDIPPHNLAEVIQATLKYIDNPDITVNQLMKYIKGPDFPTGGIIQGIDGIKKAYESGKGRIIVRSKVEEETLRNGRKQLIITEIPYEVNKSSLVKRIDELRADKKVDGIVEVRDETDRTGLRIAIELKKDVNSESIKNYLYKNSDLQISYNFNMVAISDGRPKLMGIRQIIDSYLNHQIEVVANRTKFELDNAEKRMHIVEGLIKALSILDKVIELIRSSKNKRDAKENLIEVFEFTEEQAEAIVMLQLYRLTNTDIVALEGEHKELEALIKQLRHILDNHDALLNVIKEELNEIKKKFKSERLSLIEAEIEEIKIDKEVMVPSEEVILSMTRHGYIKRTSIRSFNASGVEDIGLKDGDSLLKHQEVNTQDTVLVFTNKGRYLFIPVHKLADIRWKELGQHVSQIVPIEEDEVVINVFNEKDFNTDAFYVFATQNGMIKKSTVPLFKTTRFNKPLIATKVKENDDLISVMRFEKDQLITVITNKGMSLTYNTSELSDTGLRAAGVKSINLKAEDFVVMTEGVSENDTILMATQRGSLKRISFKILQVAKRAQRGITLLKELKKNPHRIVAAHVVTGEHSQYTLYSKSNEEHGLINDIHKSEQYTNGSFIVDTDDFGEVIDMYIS
Sequence (P0C1S7 whole entry): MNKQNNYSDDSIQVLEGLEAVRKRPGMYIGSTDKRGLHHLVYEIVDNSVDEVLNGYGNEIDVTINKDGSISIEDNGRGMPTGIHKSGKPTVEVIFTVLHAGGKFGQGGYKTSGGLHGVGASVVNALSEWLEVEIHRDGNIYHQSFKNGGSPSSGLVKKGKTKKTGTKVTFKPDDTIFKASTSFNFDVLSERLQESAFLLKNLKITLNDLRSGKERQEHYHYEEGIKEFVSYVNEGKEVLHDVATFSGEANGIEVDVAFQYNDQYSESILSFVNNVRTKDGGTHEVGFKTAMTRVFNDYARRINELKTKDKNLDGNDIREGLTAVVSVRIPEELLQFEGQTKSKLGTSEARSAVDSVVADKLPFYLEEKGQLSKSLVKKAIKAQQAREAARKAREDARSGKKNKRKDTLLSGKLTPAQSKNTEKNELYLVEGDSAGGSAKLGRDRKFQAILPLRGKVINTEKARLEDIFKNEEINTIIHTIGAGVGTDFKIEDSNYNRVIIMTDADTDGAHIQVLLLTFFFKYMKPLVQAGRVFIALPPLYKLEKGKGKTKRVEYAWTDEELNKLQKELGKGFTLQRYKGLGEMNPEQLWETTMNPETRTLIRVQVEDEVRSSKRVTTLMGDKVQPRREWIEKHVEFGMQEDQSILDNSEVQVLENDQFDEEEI
Protocol Description: biochemical
Condition Set: S. aureus; Table 4; eight half-log concentrations ranging from 0.1 to 300 μM; read-out: IC50 Topo IV
Metric Name: IC50 (µM)
Numbers only, in µM.

## Input Which value of IC50 has been reported for COc1cnc2c(c1)N([C@H]1CC[C@H](NCc3cc4c(=O)oc5ccc(F)cc5c4[nH]3)CC1)C(=O)CO2 [Compound 302] in the records?
## Output 3.26

----------
Task for the reader: assign each of the following molecules its reported IC50.
Measured Target: E. coli DNA gyrase (Escherichia coli, UniProt P0AES4+P0AES6)
Protocol Description: biochemical
Condition Set: IC50 DNA gyrase
Give bare numbers, in nM.

The following molecules have reported results that may help.
N#Cc1cnc2c(c1)N([C@H]1CC[C@H](NCc3cc4c(=O)oc5ccc(F)cc5c4[nH]3)CC1)C(=O)CO2 [Compound 214] | 120
COc1cnc2ccc(=O)n([C@H]3CC[C@@H](NCc4cc5c(=O)oc6ccc(F)cc6c5[nH]4)CC3)c2c1 [Compound 205] | 100
O=C1COc2ncc(F)cc2N1[C@H]1CC[C@](CO)(NCc2cc3c(=O)oc4ccc(F)cc4c3[nH]2)CC1 [Compound 220] | 680
O=C1COc2ncc(F)cc2N1C1CCN(CC(O)CNc2cc(=O)oc3ccc(F)cc23)CC1 (stereo not drawn) [Compound 303] | 2670
COc1cnc2ccc(=O)n([C@H]3CC[C@H](NCc4cc5c(=O)oc6ccc(F)cc6c5[nH]4)CC3)c2c1 [Compound 204] | 50

Batch: IC50 for all items listed.
1. O=c1oc2ccccc2c2[nH]c(CNCC3CCN(c4nccc5ccc(F)cc45)C3)cc12 (single isomer, unassigned) [Compound 181]
2. COc1cnc2ccc(=O)n(C3CCN(CCc4cc5c(=O)oc6ccc(F)cc6c5[nH]4)CC3)c2n1 [Compound 200]
3. O=c1nc(NCC(O)CN2CCN(c3nccc4cc[n+]([O-])cc34)CC2)c2cc(F)ccc2o1 (stereo not drawn) [Compound 164]
4. O=C1COc2ncc(F)cc2N1[C@H]1CC[C@H](NCc2cc3c(=O)oc4ccc(F)cc4c3[nH]2)CC1 [Compound 193]
5. O=c1oc2ccc(F)cc2c2[nH]c(CN[C@H]3CC[C@H](n4c(=O)cnc5ncc(F)cc54)CC3)cc12 [Compound 209]
6. COc1cnc2ncc(=O)n([C@H]3CC[C@H](NCc4cc5c(=O)oc6ccc(F)cc6c5[nH]4)CC3)c2c1 [Compound 212]
7. O=c1nc(NCC(O)CN2CCN(c3nccc4ccncc34)CC2)c2cc(F)ccc2o1 (stereo not drawn) [Compound 157]
8. O=C1COc2ncc(F)cc2N1[C@H]1CC[C@H](N(CCO)Cc2cc3c(=O)oc4ccc(F)cc4c3[nH]2)CC1 [Compound 221]

## Output
[440, 40, 3770, 250, 130, 100, 2340, 920]

Measured values drawn from patent US10633366B2 for this set.
